Measured inhibition at 10 µM accompanies every entry in the list below.
# System: ART (antigen-responding T-cell)
# Assay method text: In vitro ART (antigen-responding T-cell) proliferation test
# Format: cell-based, Lewis rat
# Condition details: Rattus norvegicus, T-cell, 10 μM; read-out: % Inhibition of ART growth
Lab book: enter the figure in %, no units written.

# annotated cases, reported inhibition at 10 µM shown
[[record]]
compound = "COc1cc(OC)cc(C(=O)NCCCSc2ccncc2)c1"
system_tested = "ART (antigen-responding T-cell)"
readout_unit = "%"
recorded_number = 46

[[record]]
compound = "O=C1c2ccccc2CN1CCCOc1ccncc1"
system_tested = "ART (antigen-responding T-cell)"
readout_unit = "%"
recorded_number = 12

[[record]]
compound = "O=C(c1ccccc1)N(CCOc1ccncc1)Cc1ccccc1"
system_tested = "ART (antigen-responding T-cell)"
readout_unit = "%"
recorded_number = 39

[[record]]
compound = "O=C1CSC(=O)N1CCCCSc1ccncc1"
system_tested = "ART (antigen-responding T-cell)"
readout_unit = "%"
recorded_number = 33

[[record]]
compound = "O=c1[nH]c2ccccc2c(=O)n1CCCCSc1ccncc1"
system_tested = "ART (antigen-responding T-cell)"
readout_unit = "%"
recorded_number = 20

[[record]]
compound = "CC(C)(C)C(=O)Nc1ncccc1SCN1C(=O)c2ccccc2C1=O"
system_tested = "ART (antigen-responding T-cell)"
readout_unit = "%"
recorded_number = 52


Return inhibition at 10 µM (reported value) for this compound: Cl.O=C1c2ccccc2C(=O)N1COc1ccncc1 [Example 116, hydrochloride]
31

* * *

# System tested: cyclooxygenase (Rattus norvegicus)
# Construct: from tissue; host or cells: platelets in platelet-rich plasma from rat abdominal aorta blood (Jcl:wistar, male)
# Sequence (Q63921 27-602): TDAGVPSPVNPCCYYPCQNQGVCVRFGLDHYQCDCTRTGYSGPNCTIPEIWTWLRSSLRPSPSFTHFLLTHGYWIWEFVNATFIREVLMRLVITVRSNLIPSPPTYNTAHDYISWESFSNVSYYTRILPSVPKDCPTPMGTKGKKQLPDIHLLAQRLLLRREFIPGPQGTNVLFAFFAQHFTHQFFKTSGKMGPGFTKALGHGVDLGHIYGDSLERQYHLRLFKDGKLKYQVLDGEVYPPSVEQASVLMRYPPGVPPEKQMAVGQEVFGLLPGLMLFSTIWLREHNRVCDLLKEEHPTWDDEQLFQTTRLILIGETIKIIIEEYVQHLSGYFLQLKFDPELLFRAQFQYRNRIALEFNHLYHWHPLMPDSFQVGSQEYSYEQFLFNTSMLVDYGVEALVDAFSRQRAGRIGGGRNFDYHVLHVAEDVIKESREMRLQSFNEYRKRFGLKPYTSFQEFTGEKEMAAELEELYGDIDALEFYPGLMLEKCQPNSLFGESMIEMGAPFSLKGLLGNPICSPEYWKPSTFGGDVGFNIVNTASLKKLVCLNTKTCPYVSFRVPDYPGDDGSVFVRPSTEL
# Assay method text: Cyclooxygenase inhibitory activity (HHT formation from arachidonic acid in rat platelet-rich plasma)
# Format: cell-based, rat (Jcl:wistar)
# note: boundary value 2000 nM maps to No; IC50 below it maps to Yes

// known answers, use as guide
[[record]]
compound = "O=C(NCCCOc1ccncc1)c1cc2ccccc2s1 [Example 85]"
system_tested = "cyclooxygenase (Rattus norvegicus)"
cat = "Yes"

[[record]]
compound = "CCCCCCCCCC(=O)NCCCCCSc1ccncc1 [Example 9]"
system_tested = "cyclooxygenase (Rattus norvegicus)"
cat = "No"

[[record]]
compound = "O=C1c2ccccc2C(O)N1CCCOc1ccncc1 (centres unmarked) [Example 99]"
system_tested = "cyclooxygenase (Rattus norvegicus)"
cat = "No"

[[record]]
compound = "CCCCCCCCCCCC(=O)NCCCSc1ccncc1 [Example 17, 4-[3-(lauroylamino)propylthio]pyridine]"
system_tested = "cyclooxygenase (Rattus norvegicus)"
cat = "Yes"


Next compound, please.
Strictly below 2000 nM in IC50? CCCCCCCCCC(=O)NCCCCSc1ccncc1 [Example 8]
Yes

The reported numbers originate from patent US5457106A.
